Provenance of the data: paper PMC2756588

# study_target: T1, Bbc1, P47068
# T1 sequence (P47068 1-78, looked up): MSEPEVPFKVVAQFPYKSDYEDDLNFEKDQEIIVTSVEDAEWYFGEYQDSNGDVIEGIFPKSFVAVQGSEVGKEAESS
# assay_explanation: SPOT array
# stated_conditions: median of control spots 796
readout_label: SPOT intensity

Recorded results for 2 binders are shown here.
binder	SPOT intensity
SRQAIPPPVPNRPGG	247
SNRRPVPRRPSQPLN	248

P = IFLRISINFPLNYPN
Q = NTMKKRPAPPSLPSL
Of P and Q , which shows the smaller SPOT intensity value? State your choice using its label.
Q
(Q: 15, P: 192)
